- System: Mus musculus
- Method Description: Activity of perorally administered compound at a dose of 20 mg/kg for 4 days against plasma glucose in obese mice
- Type: functional, organism-based
- Parameters: dose 20 mg/kg
Entries and their Plasma glucose
Measured Attribute: Plasma glucose (mg/dL)

>  <Compound>
CN(C(=O)C(F)(F)C(F)(F)C(F)(F)C(F)(F)C(F)(F)C(F)(F)C(F)(F)F)c1ccc(Cc2nnn(C)n2)cc1

>  <Measured Attribute>
Plasma glucose

>  <Unit Label>
mg/dL

>  <Reading>
128

$$$$
>  <Compound>
CN(C(=O)C(F)(F)C(F)(F)C(F)(F)C(F)(F)C(F)(F)C(F)(F)C(F)(F)F)c1ccc(Cc2nnnn2C)cc1

>  <Measured Attribute>
Plasma glucose

>  <Unit Label>
mg/dL

>  <Reading>
119

$$$$
>  <Compound>
CC1(COc2ccc(CC3SC(=O)NC3=O)cc2)CCCCC1 (centres undefined)

>  <Measured Attribute>
Plasma glucose

>  <Unit Label>
mg/dL

>  <Reading>
191

$$$$
>  <Compound>
O=C(Nc1ccc(Cc2nnnn2Cc2ccccc2)cc1)C(F)(F)C(F)(F)C(F)(F)C(F)(F)C(F)(F)C(F)(F)C(F)(F)F

>  <Measured Attribute>
Plasma glucose

>  <Unit Label>
mg/dL

>  <Reading>
152

$$$$
>  <Compound>
O=C(Nc1ccc(Cc2nnn[nH]2)cc1)C(F)(F)C(F)(F)C(F)(F)C(F)(F)C(F)(F)C(F)(F)C(F)(F)C(F)(F)F

>  <Measured Attribute>
Plasma glucose

>  <Unit Label>
mg/dL

>  <Reading>
128

$$$$
>  <Compound>
O=C(Nc1ccc(Cc2nnn[nH]2)cc1)C(F)(F)C(F)(F)C(F)(F)C(F)(F)F

>  <Measured Attribute>
Plasma glucose

>  <Unit Label>
mg/dL

>  <Reading>
207

$$$$
>  <Compound>
O=C(Nc1ccc(Cc2nnn[nH]2)cc1)C(F)(F)C(F)(F)C(F)(F)C(F)(F)C(F)(F)C(F)(F)F

>  <Measured Attribute>
Plasma glucose

>  <Unit Label>
mg/dL

>  <Reading>
231

$$$$
>  <Compound>
O=C(Nc1ccc(Cc2nnn[nH]2)cc1)C(F)(F)C(F)(F)C(F)(F)C(F)(F)C(F)(F)C(F)(F)C(F)(F)C(F)(F)C(F)(F)F

>  <Measured Attribute>
Plasma glucose

>  <Unit Label>
mg/dL

>  <Reading>
133

$$$$
>  <Compound>
O=C(Nc1ccc(Cc2nnn[nH]2)cc1)C(F)(F)C(F)(F)C(F)(F)C(F)(F)C(F)(F)C(F)(F)C(F)(F)C(F)F

>  <Measured Attribute>
Plasma glucose

>  <Unit Label>
mg/dL

>  <Reading>
108

$$$$
>  <Compound>
O=C(Nc1ccc(Cc2nnn[nH]2)cc1)C(F)(F)C(F)(F)C(F)(F)C(F)(F)C(F)(F)C(F)(F)C(F)(F)C(F)(F)C(F)(F)C(F)F

>  <Measured Attribute>
Plasma glucose

>  <Unit Label>
mg/dL

>  <Reading>
123

$$$$
>  <Compound>
O=C(Nc1ccc(Cc2nnn[nH]2)cc1)C(F)(F)F

>  <Measured Attribute>
Plasma glucose

>  <Unit Label>
mg/dL

>  <Reading>
273

$$$$
>  <Compound>
O=C(Nc1ccc(Cc2nnn[nH]2)cc1)C(F)(F)C(F)(F)F

>  <Measured Attribute>
Plasma glucose

>  <Unit Label>
mg/dL

>  <Reading>
198

$$$$
>  <Compound>
O=C(Nc1ccc(Cc2nnn(Cc3ccccc3)n2)cc1)C(F)(F)C(F)(F)C(F)(F)C(F)(F)C(F)(F)C(F)(F)C(F)(F)F

>  <Measured Attribute>
Plasma glucose

>  <Unit Label>
mg/dL

>  <Reading>
119

$$$$
>  <Compound>
O=C(Nc1ccc(Cc2nn[nH]n2)cc1)C(F)(F)C(F)(F)C(F)(F)F

>  <Measured Attribute>
Plasma glucose

>  <Unit Label>
mg/dL

>  <Reading>
213

$$$$
